- Assay details: Stability in mouse liver microsomes assessed as parent compound remaining at 50 uM preincubated for 5 to 7 mins followed by NADPH addition and measured 10 mins post-dose by LC-MS/MS
- Type: ADME, Microsome
- Experimental context: read-out: Stability
remaining at 10 min, 50 µM vs 90%: less than gives MET; not less than gives NOT MET.

Find out if reported remaining at 10 min, 50 µM for NC(C(=O)N[C@@](Cc1ccccc1)(c1cc(F)cc(OC(F)(F)C(F)F)c1)c1ccc(F)c(OC2CC2)c1)C(O)(C(F)(F)F)C(F)(F)F (stereo partly specified) is less than 90%
NOT MET

# iterate: CNC(C(=O)N[C@](Cc1ccccc1)(c1ccc(F)cc1)c1cc(F)cc(C(F)(F)F)c1)C(O)(C(F)(F)F)C(F)(F)F (stereo partly specified)
MET

# iterate: CC(C)Oc1cc([C@@](Cc2ccccc2)(NCC(N)C(O)(C(F)(F)F)C(F)(F)F)c2cc(F)cc(OC(F)(F)C(F)F)c2)ccc1F (stereo partly specified)
MET

# iterate: CC(C)Oc1cc([C@@](Cc2ccccc2)(NCC(O)C(O)(C(F)(F)F)C(F)(F)F)c2cc(F)cc(OC(F)(F)C(F)F)c2)ccc1F (stereo partly specified)
NOT MET

# iterate: CN(C)C(C(=O)N[C@](Cc1ccccc1)(c1ccc(F)cc1)c1cc(F)cc(C(F)(F)F)c1)C(O)(C(F)(F)F)C(F)(F)F (stereo partly specified)
MET

* * *

- System: CYP11B2
- Assay details: Effect on CYP11B2 gene expression in human NCI-H295R cells at 10 uM measured after 24 hrs relative to control
- Assay type: ADME, cell-based
- Experimental context: read-out: FC
Reported endpoint: fold induction at 24 h, 10 µM

Report fold induction at 24 h, 10 µM for NC(C(=O)N[C@@](Cc1ccccc1)(c1cc(F)cc(OC(F)(F)C(F)F)c1)c1ccc(F)c(OC2CC2)c1)C(O)(C(F)(F)F)C(F)(F)F (stereo partly specified) tested on CYP11B2.
0.9 to 2.1

* * *

- Assay details: Half life in cynomolgus monkey at 1 mg/kg, iv or 5 mg/kg, po administered via gavage measured upto 24 hrs by LC-MS/MS
- Format: ADME, organism-based, Macaca fascicularis
- Experimental context: in vivo
Reported endpoint: half-life (h)
Provide the reading as a plain figure in h.

What does the record list as half-life for NC(C(=O)N[C@@](Cc1ccccc1)(c1cc(F)cc(OC(F)(F)C(F)F)c1)c1ccc(F)c(OC2CC2)c1)C(O)(C(F)(F)F)C(F)(F)F (stereo partly specified) ?
69

* * *

- Target or test system: Cholesteryl ester transfer protein (Homo sapiens, UniProt P11597)
- Sequence (P11597 whole entry): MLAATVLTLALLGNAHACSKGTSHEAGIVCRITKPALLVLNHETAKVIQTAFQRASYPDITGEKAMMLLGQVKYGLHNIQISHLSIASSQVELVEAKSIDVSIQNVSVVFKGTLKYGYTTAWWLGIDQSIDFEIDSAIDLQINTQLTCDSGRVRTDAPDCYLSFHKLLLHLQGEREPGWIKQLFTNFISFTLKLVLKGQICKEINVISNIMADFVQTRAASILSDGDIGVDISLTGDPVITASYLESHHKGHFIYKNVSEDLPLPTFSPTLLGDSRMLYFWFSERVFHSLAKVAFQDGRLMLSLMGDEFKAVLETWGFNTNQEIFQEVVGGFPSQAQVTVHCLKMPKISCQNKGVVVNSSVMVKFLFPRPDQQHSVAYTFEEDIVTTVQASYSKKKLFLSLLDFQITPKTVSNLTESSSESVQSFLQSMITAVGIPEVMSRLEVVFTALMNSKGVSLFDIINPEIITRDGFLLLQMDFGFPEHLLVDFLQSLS
- Assay details: Inhibition of human recombinant CETP assessed as reduction in [3H]CE/HDL transfer incubated for 4 hrs by scintillation proximity assay
IC50 vs 10 nM: less than gives Yes; not less than gives No.

Find out if reported IC50 for CC(C)Oc1cc([C@@](Cc2ccccc2)(NC(=O)C(N)C(O)(C(F)(F)F)C(F)(F)F)c2cc(F)cc(OC(F)(F)C(F)F)c2)ccc1F (stereo partly drawn) is less than 10 nM
Yes

# iterate: NC(C(=O)N[C@](Cc1ccccc1)(c1ccc(F)cc1)c1cc(F)cc(C(F)(F)F)c1)C(O)(C(F)(F)F)C(F)(F)F (stereo partly drawn)
No

# iterate: CN(C)C(C(=O)N[C@](Cc1ccccc1)(c1ccc(F)cc1)c1cc(F)cc(C(F)(F)F)c1)C(O)(C(F)(F)F)C(F)(F)F (stereo partly drawn)
No

# iterate: O=C(N[C@@](Cc1ccccc1)(c1cc(F)cc(C(F)(F)F)c1)c1ccc(Cl)cn1)C(O)C(O)(C(F)(F)F)C(F)(F)F (stereo partly drawn)
No

# iterate: CC(C)Oc1cc([C@@](Cc2ccccc2)(NCC(O)C(O)(C(F)(F)F)C(F)(F)F)c2cc(F)cc(OC(F)(F)C(F)F)c2)ccc1F (stereo partly drawn)
Yes

# iterate: NC(C(=O)N[C@@](Cc1ccccc1)(c1cc(F)cc(OC(F)(F)C(F)F)c1)c1ccc(Cl)cn1)C(O)(C(F)(F)F)C(F)(F)F (stereo in doubt; 9b)
No

# iterate: CC(C)Oc1cc([C@@](Cc2ccccc2)(NC(=O)C(O)C(O)(C(F)(F)F)C(F)(F)F)c2cc(F)cc(OC(F)(F)C(F)F)c2)ccc1F (stereo partly drawn)
Yes

# iterate: CC(C)Oc1cc([C@@](Cc2ccccc2)(NCC(N)C(O)(C(F)(F)F)C(F)(F)F)c2cc(F)cc(OC(F)(F)C(F)F)c2)ccc1F (stereo partly drawn)
No

Where do these numbers come from? They come from ChEMBL document CHEMBL4364272.
